Entry source: the supplement of paper PMC12350171

The following compounds are shown together with reported growth AUC normalised to DMSO control values.
system: S. enterica typhimurium WT; assay: growth AUC normalised to DMSO control (median) (fraction of control); higher = less growth inhibition, active = hit call of the paper; settings: 20 µM;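 further: active when median AUC fell below 0.1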
Structures can show the parent of a compound that is named as a salt.
Please state the value as a number alone, without comment.

>>> result("CC(C(=O)O)c1ccc2c(c1)Cc1cccnc1O2 (stereo not drawn) [Pranoprofen]")
1.01
>>> result("Cc1c(NC(C)C)c(=O)n(-c2ccccc2)n1C [Isopyrin hydrochloride]")
1
>>> result("O=C(O)CCC(=O)Nc1ccc(S(=O)(=O)Nc2nccs2)cc1 [Succinylsulfathiazole]")
1

input: // Input: NS(=O)(=O)c1cc2c(cc1C(F)(F)F)NC(Cc1ccccc1)NS2(=O)=O (stereo not drawn) [Bendroflumethiazide] . Output its growth AUC normalised to DMSO control only.
output: 1.01

###

# Lookup of reported growth AUC normalised to DMSO control keyed by entry
system: P. vulgatus WT; test: growth AUC normalised to DMSO control (median) (fraction of control); higher = less growth inhibition, active = hit call of the paper; settings: 20 µM
Counter-ions that a name gives are not always drawn.

# annotated cases, reported growth AUC normalised to DMSO control shown
>>> result("C[C@H](N)[C@H](O)c1cccc(O)c1 [Metaraminol bitartrate]")
"0.989 (inactive)"
>>> result("N#Cc1cc(NC(=O)C(=O)O)c(Cl)c(NC(=O)C(=O)O)c1 [Lodoxamide]")
"1.04 (inactive)"
>>> result("CO[C@@]1(NC(=O)C(C(=O)O)c2ccc(O)cc2)C(=O)N2C(C(=O)O)=C(CSc3nnnn3C)CO[C@@H]21 (some centres not stated) [Moxalactam disodium salt]")
"0.0488 (active)"
>>> result("Cc1cc(-c2ccccc2)nnc1NCCN1CCOCC1 [Minaprine dihydrochloride]")
"0.998 (inactive)"
>>> result("COC(=O)[C@H]1[C@H]2C[C@@H]3c4[nH]c5cc(OC)ccc5c4CCN3C[C@H]2C[C@@H](OC(=O)c2cc(OC)c(OC)c(OC)c2)[C@@H]1OC")
"1.05 (inactive)"
>>> result("C[C@]12C=CC(=O)C=C1CC[C@H]1[C@@H]3C[C@@H](O)[C@](O)(C(=O)CO)[C@@]3(C)C[C@H](O)[C@@]12F")
"0.98 (inactive)"

Okay, next one:
input: Identify the reported growth AUC normalised to DMSO control for the following entry. CC1CS(=O)(=O)CCN1/N=C/c1ccc([N+](=O)[O-])o1 (configuration not stated)
output: 0.00686 (active)

###

system: P. vulgatus WT; test: growth AUC normalised to DMSO control (median) (fraction of control); higher = less growth inhibition, active = hit call of the paper; conditions: 20 µM
Counter-ions that a name gives are not always drawn.
Could you label it yes if measured growth AUC normalised to DMSO control is 1 or higher, and no otherwise?

Worked examples, 3 compounds total:
>>> assigned_label("CCN[C@H]1C[C@H](C)S(=O)(=O)c2sc(S(N)(=O)=O)cc21 [Dorzolamide hydrochloride]")
"yes"
>>> assigned_label("C1CCC(C(CC2CCCCN2)C2CCCCC2)CC1 (stereo not drawn) [Perhexiline maleate]")
"no"
>>> assigned_label("CCCOc1ccc(C(=O)OCCN(CC)CC)cc1N [Proparacaine hydrochloride]")
"yes"

input: # check: growth AUC normalised to DMSO control of CCOC(=O)C1=C(C)NC(C)=C(C(=O)OC)C1c1cccc([N+](=O)[O-])c1 (stereo not drawn) [Nitrendipine] is greater than or equal to 1
output: yes

input: growth AUC normalised to DMSO control >= 1 for Cc1c(O)c(=O)n(-c2ccccc2)n1C [Antipyrine, 4-hydroxy] ?
output: yes
